# TEST DESCRIPTION: Acute oral toxicity in mice
# CONDITION INFO: mouse, in vivo, male ddY mice, deaths counted after 7 days, Behrens-Kaerber method, read-out: median lethal dose (LD50)
ASSAY METRIC: LD50 at 168 h

Noted for CN1CCN(c2nc3c(cc2F)c(=O)c(C(=O)O)cn3CCF)CC1 : its LD50 at 168 h reads > 1800 mg/kg
